- assayedSystem: T1, Peptide 8 (peanut)
- T1 construct: also called linear Ara h 2 peptide 8
- T1 peptide: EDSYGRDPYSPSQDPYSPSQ
- assayNotes: competition ELISA, peptide in solution vs coated Ara h 2
observable: binding result

Query :: // fetch binding result given entry h12G10 (antibody, human IgG1, V domains shown, Recombinant human IgG; also called hMAb 12G10) VH: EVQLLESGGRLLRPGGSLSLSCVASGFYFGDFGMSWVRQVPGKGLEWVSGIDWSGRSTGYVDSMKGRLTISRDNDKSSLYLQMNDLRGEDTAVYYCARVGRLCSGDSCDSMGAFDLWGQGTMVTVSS VL: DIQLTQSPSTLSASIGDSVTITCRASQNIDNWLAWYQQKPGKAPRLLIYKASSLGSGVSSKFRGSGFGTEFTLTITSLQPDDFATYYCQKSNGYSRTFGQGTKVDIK
Result :: binds

Query :: // fetch binding result given entry h37D5 (antibody, V domains shown, Recombinant human IgG; also called hMAb 37D5) VH: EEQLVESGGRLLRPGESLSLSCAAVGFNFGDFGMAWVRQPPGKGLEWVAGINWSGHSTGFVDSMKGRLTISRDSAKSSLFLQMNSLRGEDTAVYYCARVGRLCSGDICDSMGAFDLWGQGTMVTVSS VL: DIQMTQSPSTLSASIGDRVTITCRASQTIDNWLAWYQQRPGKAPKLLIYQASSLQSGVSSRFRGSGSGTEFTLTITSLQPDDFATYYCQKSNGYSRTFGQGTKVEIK
Result :: binds

Each recorded value in this set is attributed to patent US20200199207A1.
